Data provenance is patent US20130029928A1.

# assay_remarks: Phase I study CXR1002-001: plasma pharmacokinetics (LC-MS/MS)
# Format: in vivo, human
# stated_conditions: human, plasma, oral, 200 mg, Patient 010 Dose 200 mg; 4 hr; read-out: Concentration
property_label: concentration at 4 h (µM)

- O=C(O)C(F)(F)C(F)(F)C(F)(F)C(F)(F)C(F)(F)C(F)(F)C(F)(F)F: 33.6

----------
# assay_remarks: Phase I study CXR1002-001: plasma pharmacokinetics (LC-MS/MS)
# Assay type: in vivo, human
# stated_conditions: human, plasma, oral, 950 mg, Patient 029, 950 mg, person, plasma, 675 hr; read-out: Concentration
property_label: concentration at 675 h (µM)

- O=C(O)C(F)(F)C(F)(F)C(F)(F)C(F)(F)C(F)(F)C(F)(F)C(F)(F)F: 972
